Experiment: Monkey pharmacokinetic study (iv, plasma LC/MS/MS)
Type: in vivo, cynomolgus monkeys
Settings: plasma; cynomolgus monkey, intravenous injection, 1 mg/kg; read-out: Area under curve AUC0-72

molecule	AUC(0-t), ng·h/mL
CC(C)(C#Cc1ccc(-c2ccc(Cl)c3c(NS(C)(=O)=O)nn(CC(F)(F)F)c23)c([C@H](Cc2cc(F)cc(F)c2)NC(=O)Cn2nc(C(F)(F)F)c3c2C(F)(F)[C@@H]2C[C@H]32)n1)S(C)(=O)=O [Positive Control Example 1, reference compound]	2130
CC(C)(C#Cc1nc([C@H](Cc2cc(F)cc(F)c2)NC(=O)Cn2nc(C(F)(F)F)c3c2C(F)(F)[C@@H]2C[C@H]32)c(-c2ccc(Cl)c3c(NS(C)(=O)=O)nn(CC(F)(F)F)c23)c2c1CCC2)S(C)(=O)=O (atropisomer, axis not shown; (aR))	8520

----------
Target: HIV-1 capsid protein (Human immunodeficiency virus type 1 group M subtype B)
Construct: made in house; host or cells: E. coli (pET30 vector)
Test: In vitro polymerization of HIV-1 capsid protein (His-CA/GST-CA, Eu cryptate/XL665 energy transfer)
Type: biochemical, HIV-1 NL4-3
Details: 37° C., 2 h incubation
Items are presented alongside their recorded Imax.
property: Imax (%)

compound	unit.string	measured.value
CC(C)(C#Cc1nc([C@H](Cc2cc(F)cc(F)c2)NC(=O)Cn2nc(C(F)(F)F)c3c2C(F)(F)[C@@H]2C[C@H]32)c(-c2ccc(Cl)c3c(NS(C)(=O)=O)nn(CC(F)(F)F)c23)c2c1CCCC2)S(C)(=O)=O (single isomer, unassigned) [Example 5-1]	%	108
CC(C)(C#Cc1nc([C@H](Cc2cc(F)cc(F)c2)NC(=O)Cn2nc(C(F)(F)F)c3c2C(F)(F)[C@@H]2C[C@H]32)c(-c2ccc(Cl)c3c(NS(C)(=O)=O)nn(CC(F)(F)F)c23)c2c1CCC2)S(=O)(=O)C1CC1 (atropisomer, axis not shown; (aR)) [Example 3]	%	98
CC(C)(C#Cc1nc([C@H](Cc2cc(F)cc(F)c2)NC(=O)Cn2nc(C(F)(F)F)c3c2C(F)(F)[C@@H]2C[C@H]32)c(-c2ccc(Cl)c3c(NS(=O)(=O)C4CC4)nn(CC(F)(F)F)c23)c2c1CCC2)S(C)(=O)=O (atropisomer, axis not shown; (aR)) [Example 2]	%	100
CC(C)(C#Cc1nc([C@H](Cc2cc(F)cc(F)c2)NC(=O)Cn2nc(C(F)(F)F)c3c2C(F)(F)[C@@H]2C[C@H]32)c(-c2ccc(Cl)c3c(NS(C)(=O)=O)nn(CC(F)(F)F)c23)c2c1CCC2)S(C)(=O)=O (atropisomer, axis not shown; (aR)) [Example 1-1]	%	100
CC(C)(C#Cc1nc([C@H](Cc2cc(F)cc(F)c2)NC(=O)Cn2nc(C(F)(F)F)c3c2C(F)(F)[C@@H]2C[C@H]32)c(-c2ccc(Cl)c3c(NS(C)(=O)=O)nn(CC(F)(F)F)c23)c2ccccc12)S(C)(=O)=O (atropisomer, axis not shown; (aR)) [Example 6]	%	75
CC(C)(C#Cc1nc([C@H](Cc2cc(F)cc(F)c2)NC(=O)Cn2nc(C(F)(F)F)c3c2C(F)(F)[C@@H]2C[C@H]32)c(-c2ccc(Cl)c3c(NS(=O)(=O)C4CC4)nn(CC(F)(F)F)c23)c2c1CCC2)S(=O)(=O)C1CC1 (atropisomer, axis not shown; (aR)) [Example 4]	%	91
